Below, each of the compounds is paired with its reported cell viability value.
- Test system: Caco-2
- measurement notes: cell viability relative to DMSO; higher = less toxic
- run parameters: 72 h; 10000 nM
measured parameter: cell viability (%)

- compound: "CC(=O)Nc1ccc(NC(=S)NC(=O)c2ccc(C(C)(C)C)cc2)cc1"
  unit annotation: "%"
  measured number: 88.7
- compound: "CO[C@]12C[C@@H](COC(=O)c3cncc(Br)c3)CN(C)[C@@H]1Cc1cn(C)c3cccc2c13"
  unit annotation: "%"
  measured number: 95.4
- compound: "CC(C)=CCc1c(O)cc(O)c2c(=O)c(O)c(-c3ccc(C(F)(F)F)cc3)oc12"
  unit annotation: "%"
  measured number: 40
- compound: "COc1ccccc1OCC(O)COC(N)=O (configuration not stated)"
  unit annotation: "%"
  measured number: 100
- compound: "C[N+](C)(C)CC(=O)O"
  unit annotation: "%"
  measured number: 87.1
- compound: "CCOc1cncc(/C=C/CCNC)c1"
  unit annotation: "%"
  measured number: 102
- compound: "O=C(COc1ccc(C(=O)c2ccccc2)cc1)NC1CCN(Cc2ccccc2)CC1"
  unit annotation: "%"
  measured number: 91.9
- compound: "CCN(CC)C(=O)c1ccc(C2=CC3(CCNCC3)Oc3cccc(O)c32)cc1"
  unit annotation: "%"
  measured number: 110
- compound: "N[C@@H](C(=O)N[C@@H]1C(=O)N2C(C(=O)O)=C(Cl)CS[C@H]12)c1ccccc1"
  unit annotation: "%"
  measured number: 92.6
- compound: "OCCc1ccc(OCCn2ccnc2)cc1"
  unit annotation: "%"
  measured number: 99.8
- compound: "Cc1cccc(C)c1NC(=O)CC12CCCN1CCC2 [pilsicainide]"
  unit annotation: "%"
  measured number: 91.9
- compound: "O=c1[nH]c(=O)n([C@H]2C[C@H](O)[C@@H](CO)O2)cc1F"
  unit annotation: "%"
  measured number: 44.6
- compound: "C[C@@H](NC(=O)[C@@H](N)Cc1ccc(O)cc1)C(=O)NCC(=O)N(C)[C@@H](Cc1ccccc1)C(=O)N[C@H](CO)CC[S+](C)[O-] (some centres not stated)"
  unit annotation: "%"
  measured number: 102
- compound: "CC(C)(C)C(=O)OCOC(=O)[C@@H]1N2C(=O)[C@@H](/N=C/N3CCCCCC3)[C@H]2SC1(C)C"
  unit annotation: "%"
  measured number: 97.2
- compound: "CC[N+](C)(CC)CCOC(=O)C1c2ccccc2Oc2ccccc21"
  unit annotation: "%"
  measured number: 96.3
- compound: "COc1ccc(-c2nc(N3CCOCC3)c3sc(CN(C)c4ncc(C(=O)NO)cn4)cc3n2)cn1"
  unit annotation: "%"
  measured number: 1
- compound: "C[C@H](NCc1ccc(OCc2ccccc2F)cc1)C(N)=O [priralfinamide]"
  unit annotation: "%"
  measured number: 91.2
- compound: "O[C@@H](CN1CCC(Cc2ccc(F)cc2)CC1)c1ccc(Cl)cc1 (racemic)"
  unit annotation: "%"
  measured number: 104
- compound: "Cc1cc(-c2nncc3c(C(C)(C)C)c(OCc4ncnn4C)nn23)no1"
  unit annotation: "%"
  measured number: 97.2
- compound: "CCCN(CCC)C(=O)Cc1c(-c2ccc(Cl)cc2)nc2ccc(Cl)cn12"
  unit annotation: "%"
  measured number: 100
- compound: "NC(=O)CN1CC[C@@H](NC(=O)[C@@H]2CCCN2)C1=O"
  unit annotation: "%"
  measured number: 96.7
- compound: "C=CC(=O)Nc1cc(Nc2nccc(-c3c[nH]c4ccccc34)n2)c(OC)cc1N(C)CCN(C)C"
  unit annotation: "%"
  measured number: 24.3
- compound: "COc1cc2c(c(OC)c1OC)-c1c(cc3c(c1OC)OCO3)C[C@H](C)[C@@](C)(O)C2"
  unit annotation: "%"
  measured number: 97.4
- compound: "C[N+]1([O-])[C@@H]2C[C@@H](OC(=O)[C@H](CO)c3ccccc3)C[C@H]1[C@@H]1O[C@@H]12 (some centres not stated) [scopolamine-N-oxide]"
  unit annotation: "%"
  measured number: 102
- compound: "COC1=C[C@@H]2[C@@H]3Cc4ccc(OC)c(O)c4[C@]2(CCN3C)CC1=O"
  unit annotation: "%"
  measured number: 104
- compound: "Nc1ncc2c(n1)CC(c1ccco1)CC2=O (configuration not stated)"
  unit annotation: "%"
  measured number: 97.6
- compound: "CS(=O)(=O)c1ccc(-c2cnc(NCc3ccco3)n3cnnc23)cc1"
  unit annotation: "%"
  measured number: 103

All figures here come from the supplement of paper PMC13380429.
